SYSTEM NAME: MarA (Escherichia coli) (UniProt P0ACH5)
Sequence: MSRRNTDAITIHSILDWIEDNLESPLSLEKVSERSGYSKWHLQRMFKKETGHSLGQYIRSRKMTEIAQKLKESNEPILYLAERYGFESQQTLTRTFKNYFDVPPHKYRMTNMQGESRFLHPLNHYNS
METHOD: EMSA
EXPERIMENTAL CONDITIONS: EMSA with 5' 32P PCR fragments, MarA 1, 2 or 4 uM, PAGE at 150 V; buffer, salt, pH and temperature not given (cited method)
ENDPOINT NAME: binding

GCCCGAAGCTTCATAGTAAATAGCTGACTTATGGATGTGCTGGGGATTCTATGTATTTAGCTGTGGCTTTACCATTACTTTTCCCGTTTTTGACTTAAATAGCTTCAGTTTGGTCTGATCTGCCGCTACATCTTCATTTTTTTTGTATTTTTATGCGATTCATTGAAACTCGGCCCG / AATTCGGGCCGAGTTTCAATGAATCGCATAAAAATACAAAAAAAATGAAGATGTAGCGGCAGATCAGACCAAACTGAAGCTATTTAAGTCAAAAACGGGAAAAGTAATGGTAAAGCCACAGCTAAATACATAGAATCCCCAGCACATCCATAAGTCAGCTATTTACTATGAAGCTTCGGGC [kdtA (waaA) regulatory region]
binds
GCCCGAAGCTTCATGATGAGCATTCAGATAGTGGTTCACGCGCACGGGTTGCGCACCGCCGGAGTAAGGATTTACTGAGGCTAGCGACGCCATCATAACGAGCAAAAAGTGCGATCGTCAAAGGAGAATCGTGAGGAAATGCTGCATTGCTGACATTTACGCCG / AATTCGGCGTAAATGTCAGCAATGCAGCATTTCCTCACGATTCTCCTTTGACGATCGCACTTTTTGCTCGTTATGATGGCGTCGCTAGCCTCAGTAAATCCTTACTCCGGCGGTGCGCAACCCGTGCGCGTGAACCACTATCTGAATGCTCATCATGAAGCTTCGGGC [pbpG regulatory region]
binds
GCCCGAAGCTTCATCGTATTATCTCGCCAAATTACCTATCCAACCGAAGTGTACTATACATTCGGCGGGCCAGTTTAGCACAAAGAGCCTCGAAACCCAAATTCCAGTCAATTCTTAATCAGCTTGCTTACGCAG / AATTCTGCGTAAGCAAGCTGATTAAGAATTGACTGGAATTTGGGTTTCGAGGCTCTTTGTGCTAAACTGGCCCGCCGAATGTATAGTACACTTCGGTTGGATAGGTAATTTGGCGAGATAATACGATGAAGCTTCGGGC [lpxC regulatory region]
binds
